# self-aminoacylation per record follows
- System: biotinyl-Val-oxazolone
- assay_method_text: self-aminoacylation, catalytic enhancement (BVO) (fold over background); higher = more active; k-Seq, kA / k0A0; sequences stand for … in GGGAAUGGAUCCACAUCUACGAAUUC…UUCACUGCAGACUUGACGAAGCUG
This sample holds only a part of the variants without activity.

- sequence_string: "AUUACCCUGGUCACCGGGUGA [Fam2.1 aminoacylation ribozyme variant]"
  readout_label: "self-aminoacylation"
  observed_value: 7.91
- sequence_string: "AAGUUUGCUAAUAGUCGCUAG [Fam3.1 aminoacylation ribozyme variant]"
  readout_label: "self-aminoacylation"
  observed_value: 0.852
- sequence_string: "CUACGUCGAACAAUCGGUCUG [Fam1A.1 aminoacylation ribozyme variant]"
  readout_label: "self-aminoacylation"
  observed_value: 1.93
- sequence_string: "AUUCUCCUAGGUUAUCGGGUG [Fam2.2 aminoacylation ribozyme variant]"
  readout_label: "self-aminoacylation"
  observed_value: 3.88
- sequence_string: "CUACUUCAGACAAUCGGUCUG [Fam1A.1 aminoacylation ribozyme variant]"
  readout_label: "self-aminoacylation"
  observed_value: 0.822

// query If you can, please state the reported self-aminoacylation value of CUACUUCAAACCAUCGAUCUG [Fam1A.1 aminoacylation ribozyme variant] .
// result 0.777

// query Follow-up entry: AUUACCCUGGUCGACGAGUGA [Fam2.1 aminoacylation ribozyme variant]
// result 3.33

// query Now this one: CCACACUUCUAGCAAUUGGUC [Fam1B.1 aminoacylation ribozyme variant]
// result 0.687

###

- Test system: biotinyl-Leu-oxazolone
- assay_method_text: self-aminoacylation, catalytic enhancement (BLO) (fold over background); higher = more active; k-Seq, kA / k0A0; sequences stand for … in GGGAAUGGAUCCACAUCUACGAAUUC…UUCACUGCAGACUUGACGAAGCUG
Variants at the floor of the assay were thinned out.
Rule: self-aminoacylation under 1 gives not fulfilled, otherwise fulfilled.

Before answering, review these 8 worked examples.
- sequence_string: "AAGUUUGCACAUAGUCGCAAG [Fam3.1 aminoacylation ribozyme variant]"
  group_label: "not fulfilled"
- sequence_string: "AAUCACCUAGGGCAUCGGGUG [Fam2.2 aminoacylation ribozyme variant]"
  group_label: "fulfilled"
- sequence_string: "AAGUUUGCUAAUAUUCGCAAU [Fam3.1 aminoacylation ribozyme variant]"
  group_label: "fulfilled"
- sequence_string: "CGACACUUCAACCAAUCGGUC [Fam1B.1 aminoacylation ribozyme variant]"
  group_label: "fulfilled"
- sequence_string: "CUACUUUAAAAAAUCGGUCUG [Fam1A.1 aminoacylation ribozyme variant]"
  group_label: "not fulfilled"
- sequence_string: "AUUACCCUGGUCAGCGCGUGA [Fam2.1 aminoacylation ribozyme variant]"
  group_label: "fulfilled"
- sequence_string: "AUUAACCUGGUCAUAGAGUGA [Fam2.1 aminoacylation ribozyme variant]"
  group_label: "fulfilled"
- sequence_string: "AUGCACCUAGGUCAUCGGGAG [Fam2.2 aminoacylation ribozyme variant]"
  group_label: "fulfilled"

// query Check this sequence for self-aminoacylation at or above 1: AUCACCCUGGUCAUCAAGUGA [Fam2.1 aminoacylation ribozyme variant]
// result fulfilled

// query Please give the result for AUUCACAUAGGUCAGCGGGUG [Fam2.2 aminoacylation ribozyme variant] too.
// result fulfilled

// query Now try ACGUUUGUUAAUAGUCGCAAG [Fam3.1 aminoacylation ribozyme variant] .
// result fulfilled

// query Please answer likewise for AUUACCCAGGUCCUCGAGUGA [Fam2.1 aminoacylation ribozyme variant]
// result fulfilled

// query And what about the sequence CUGCUUCAAACAAUCGGGCUG [Fam1A.1 aminoacylation ribozyme variant] ?
// result fulfilled

// query And what about the sequence CGACUUCAAACAAUCGGUAUG [Fam1A.1 aminoacylation ribozyme variant] ?
// result fulfilled

// query Entry CCACUCUUCAAGUAAUCGGUC [Fam1B.1 aminoacylation ribozyme variant] please
// result not fulfilled

// query Again, but for AAGUUUGCUAAUUGUAGCAAG [Fam3.1 aminoacylation ribozyme variant]
// result not fulfilled

// query What do we get for AUUCAACUCGGUCAUCGGGUG [Fam2.2 aminoacylation ribozyme variant] ?
// result fulfilled

###

- Tested on: biotinyl-Trp-oxazolone
- assay_method_text: self-aminoacylation, catalytic enhancement (BWO) (fold over background); higher = more active; k-Seq, kA / k0A0; sequences stand for … in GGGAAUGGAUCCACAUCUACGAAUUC…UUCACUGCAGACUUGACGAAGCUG
Variants at the floor of the assay were thinned out.
self-aminoacylation: recorded values
Could you respond with only the numeric value?

The following sequences have reported results that may help.
- sequence_string: "AUUACCCUGGUCAUGGAGAGA [Fam2.1 aminoacylation ribozyme variant]"
  self-aminoacylation: 1.77
- sequence_string: "AUUCACCUAGUUCAUUGGGUG [Fam2.2 aminoacylation ribozyme variant]"
  self-aminoacylation: 2.83
- sequence_string: "CCGCACUGCAAGCAAUCGGUC [Fam1B.1 aminoacylation ribozyme variant]"
  self-aminoacylation: 1.42

// query Could you tell me which self-aminoacylation is on file for CCACACCUCCAGCAAUCGGUC [Fam1B.1 aminoacylation ribozyme variant] ?
// result 1.19

###

- System: biotinyl-Val-oxazolone
- assay_method_text: self-aminoacylation, catalytic enhancement (BVO) (fold over background); higher = more active; k-Seq, kA / k0A0; sequences stand for … in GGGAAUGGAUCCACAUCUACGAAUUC…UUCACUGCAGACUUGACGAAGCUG
This sample holds only a part of the variants without activity.
Readings of self-aminoacylation for the listed sequences
Response field accepts a number only; no unit should be typed.

- sequence_string: "AUUCACCUAGGUCAACGGGGG [Fam2.2 aminoacylation ribozyme variant]"
  self-aminoacylation: 1.84
- sequence_string: "AUUAACCUAGGUGAUCGGGUG [Fam2.2 aminoacylation ribozyme variant]"
  self-aminoacylation: 2.1
- sequence_string: "CCGCACUUCAGGCAAUCGGUC [Fam1B.1 aminoacylation ribozyme variant]"
  self-aminoacylation: 2.87
- sequence_string: "AUGACCCUGGUCAUCGCGUGA [Fam2.1 aminoacylation ribozyme variant]"
  self-aminoacylation: 7.53
- sequence_string: "AGGUUUGCUAGUAGUCGCAAG [Fam3.1 aminoacylation ribozyme variant]"
  self-aminoacylation: 0.894
- sequence_string: "AGUACUCUGGUCAUCGAGUGA [Fam2.1 aminoacylation ribozyme variant]"
  self-aminoacylation: 3.01
- sequence_string: "AUUACCCUGGUCAUGGAGAGA [Fam2.1 aminoacylation ribozyme variant]"
  self-aminoacylation: 1.18
- sequence_string: "GCACACUUCAAUCAAUCGGUC [Fam1B.1 aminoacylation ribozyme variant]"
  self-aminoacylation: 1.69

Let us move to another entry and its self-aminoacylation.
// query Entry AUUACCCUAGUCAUCGGGUGA [Fam2.1 aminoacylation ribozyme variant] : reported self-aminoacylation = ?
// result 4.8

###

Quick reference for self-aminoacylation among some sequences
- Test system: biotinyl-Met-oxazolone
- assay_method_text: self-aminoacylation, catalytic enhancement (BMO) (fold over background); higher = more active; k-Seq, kA / k0A0; sequences stand for … in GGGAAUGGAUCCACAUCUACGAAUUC…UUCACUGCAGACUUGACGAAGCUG
This sample holds only a part of the variants without activity.

See these solved cases before continuing.
- sequence_string: "AUUCCCCGAGGUCAUCGGGUG [Fam2.2 aminoacylation ribozyme variant]"
  readout_label: "self-aminoacylation"
  observed_value: 22.7
- sequence_string: "CUACUCCAAACAAUCCGUCUG [Fam1A.1 aminoacylation ribozyme variant]"
  readout_label: "self-aminoacylation"
  observed_value: 0.636
- sequence_string: "CGACACUUCAACCAAUCGGUC [Fam1B.1 aminoacylation ribozyme variant]"
  readout_label: "self-aminoacylation"
  observed_value: 1.61
- sequence_string: "AUUACCCUGGUCAUAGAGCGA [Fam2.1 aminoacylation ribozyme variant]"
  readout_label: "self-aminoacylation"
  observed_value: 1.03
- sequence_string: "AUUCACCUACGUCAUGGGGUG [Fam2.2 aminoacylation ribozyme variant]"
  readout_label: "self-aminoacylation"
  observed_value: 2.5

// query Endpoint output: self-aminoacylation of CUACUUCAUACAAUCGAUCUG [Fam1A.1 aminoacylation ribozyme variant] . Value?
// result 0.653

// query Record: CCACACUUAAGGCAAUCGGUC [Fam1B.1 aminoacylation ribozyme variant]
// result 0.983

// query Subsequent entry: AUUACACUGGUCAUCGAGUUA [Fam2.1 aminoacylation ribozyme variant]
// result 1.05

###

Quick reference for self-aminoacylation among some sequences
- Test system: biotinyl-Ile-oxazolone
- assay_method_text: self-aminoacylation, catalytic enhancement (BIO) (fold over background); higher = more active; k-Seq, kA / k0A0; sequences stand for … in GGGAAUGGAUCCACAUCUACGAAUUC…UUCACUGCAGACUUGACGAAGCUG
This sample holds only a part of the variants without activity.
Give only the figure.

Observe how each entry below is paired with its result.
- sequence_string: "AAUACCCUGGACAUCGAGUGA [Fam2.1 aminoacylation ribozyme variant]"
  observed_value: 2.25
- sequence_string: "AUACACCUAGGUCACCGGGUG [Fam2.2 aminoacylation ribozyme variant]"
  observed_value: 3.29
- sequence_string: "CCACUCUUCAAGCAAGCGGUC [Fam1B.1 aminoacylation ribozyme variant]"
  observed_value: 0.909
- sequence_string: "AUUCACAUAGGGCAUCGGGUG [Fam2.2 aminoacylation ribozyme variant]"
  observed_value: 3.83

--- query ---
// query Please give the measured self-aminoacylation for this sequence: CUACUUCAAACAAUCGUUCGG [Fam1A.1 aminoacylation ribozyme variant]
// result 0.787
